Tested on: HOSE1C
Test: drug sensitivity score (DSS) from 5-point dose-response viability curve (DSS (area-under-curve based score)); higher = more sensitive (stronger growth inhibition or killing); extreme values may be limits of the assay
Condition Summary: exposure time: 72 h; concentration range: 5 concentrations over 10,000-fold range
Cut-off 4 on drug sensitivity score, inclusive. At or above means t; below means f.

Exercise: Dear colleague, could you confirm whether Cc1cccc(-c2nn3c(c2-c2ccnc4ccc(C(N)=O)cc24)CCC3)n1 has drug sensitivity score at or above 4?
Key: f

Exercise: Try this compound next: COc1cc(N2CCN(C)CC2)ccc1Nc1nccc(-c2cn(C)c3cnccc23)n1
Key: f

Exercise: Record: COc1cc2c(Oc3ccc(NC(=O)C4(C(=O)Nc5ccc(F)cc5)CC4)cc3F)ccnc2cc1OCCCN1CCOCC1
Key: f

New cases:
Exercise: // inclusive: drug sensitivity score at least 4? input: c1cn2cc(-c3ccc4cn[nH]c4c3)nc(Nc3ccc(N4CCOCC4)cc3)c2n1
Key: f

Exercise: Would you kindly repeat that for Nc1nc(OCc2cc(Br)cs2)c2[nH]cnc2n1 ?
Key: f

Exercise: Also C=CC(=O)Nc1cc2c(Nc3ccc(F)c(Cl)c3)ncnc2cc1OCCCN1CCOCC1 , if possible.
Key: t

Exercise: Here is the next compound: Cc1cn(-c2cc(NC(=O)c3ccc(C)c(Nc4nccc(-c5cccnc5)n4)c3)cc(C(F)(F)F)c2)cn1
Key: f

Exercise: Try this compound next: CO[C@H]1C[C@@H]2CC[C@@H](C)[C@@](O)(O2)C(=O)C(=O)N2CCCC[C@H]2C(=O)O[C@H]([C@H](C)C[C@@H]2CC[C@@H](OP(C)(C)=O)[C@H](OC)C2)CC(=O)[C@H](C)/C=C(\C)[C@@H](O)[C@@H](OC)C(=O)[C@H](C)C[C@H](C)/C=C/C=C/C=C/1C
Key: f

Exercise: Further, for Nc1nc2[nH]cc(CCc3ccc(C(=O)N[C@@H](CCC(=O)O)C(=O)O)cc3)c2c(=O)[nH]1 ?
Key: t

* * *

Tested on: OVCAR5
Test: drug sensitivity score (DSS) from 5-point dose-response viability curve (DSS (area-under-curve based score)); higher = more sensitive (stronger growth inhibition or killing); extreme values may be limits of the assay
Condition Summary: exposure time: 72 h; concentration range: 5 concentrations over 10,000-fold range
Record MET whenever drug sensitivity score is at 2 or higher; record NOT MET when lower.

// below: answered compounds
Exercise: Item CCN(CC)CCN(Cc1ccc(-c2ccc(C(F)(F)F)cc2)cc1)C(=O)Cn1c(SCc2ccc(F)cc2)nc(=O)c2c1CCC2 with drug sensitivity score of 2 or above?
Key: NOT MET

Exercise: Another compound to look at: CCNCCS(=O)(=O)NC[C@@]1(c2ccccc2)SC(NC(=O)C(C)(C)C)=NN1C(=O)C(C)(C)C
Key: MET

Exercise: Likewise for CNC(=O)c1nn(C)c2c1C(C)(C)Cc1cnc(Nc3ccc(N4CCN(C)CC4)cc3)nc1-2 ?
Key: MET

Exercise: Another compound: COc1ccc(S(=O)(=O)Nc2cccnc2Nc2ccc(O)cc2)cc1
Key: MET

Exercise: How about this compound: CCS(=O)(=O)N1CCN(c2ccc(Nc3ncc(C(N)=O)c(NC4CC4)n3)cc2)CC1
Key: NOT MET

Now for a further compound.
Exercise: Form field: drug sensitivity score at least 2? Entry: CN(CC(=O)N(Cc1ccc(C2CCCCC2)cc1)c1ccc(C(=O)O)cc1)S(=O)(=O)c1c(F)c(F)c(F)c(F)c1F
Key: MET

Entry source: the supplement of paper PMC11616607
